# System: Crude diglycosidase
# Assay Method Text: Examination of temperature in the conversion into isoflavone aglycons by diglycosidase using soybean materials
# Assay type: biochemical, Penicillium multicolor IAM7153
# Condition Details: 30 °C; heat treatment of enzyme: yes; 6 h
Measurement Name: Decomposition efficiency of glycitin family in concentrated soybean protein (%)
Your answer should be a plain number; it is taken to be in %.

Ask | Look up Decomposition efficiency of glycitin family in concentrated soybean protein for this molecule: COc1cc2c(=O)c(-c3ccc(O)cc3)coc2cc1O[C@@H]1O[C@H](CO)[C@@H](O)[C@H](O)[C@H]1O
Reply | 52.8

----------
Recorded Decomposition efficiency of glycitin family in soymilk by entry
# Tested on: Crude diglycosidase
# Assay Method Text: Examination of pH in the conversion into isoflavone aglycons by diglycosidase using soybean materials
# Format: biochemical, Penicillium multicolor IAM7153
# Condition Details: pH2.3, heat treatment of enzyme yes, reaction time 6 h, 55° C.
Answer as a number with no unit attached.

>  <Smiles Entry>
COc1cc2c(=O)c(-c3ccc(O)cc3)coc2cc1O[C@@H]1O[C@H](COC(=O)CC(=O)O)[C@@H](O)[C@H](O)[C@H]1O

>  <Value Measured>
41.3

$$$$
>  <Smiles Entry>
COc1cc2c(=O)c(-c3ccc(O)cc3)coc2cc1O[C@@H]1O[C@H](CO)[C@@H](O)[C@H](O)[C@H]1O

>  <Value Measured>
51.7

$$$$

Now take the following molecule into account.
Ask | Which measured Decomposition efficiency of glycitin family in soymilk belongs to COc1cc2c(=O)c(-c3ccc(O)cc3)coc2cc1O , tested on Crude diglycosidase?
Reply | 6.9

----------
Catalogue of Decomposition efficiency: ratio of each glycoside/aglycon within its isoflavone family readings, one per entry.
# Test system: Crude diglycosidase
# Assay Method Text: Examination of substrate concentration in the conversion into isoflavone aglycons by diglycosidase using soybean materials;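 further: percent of the isoflavone family total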
# Format: biochemical, Penicillium multicolor IAM7153
# Condition Details: concentrated soybean protein, substrate concentration 20%, heat treatment of enzyme no, reaction time 3 h
All answers are understood in %, so give the number only.

Use the examples below as a reference point.
>  <Molecule>
CC(=O)OC[C@H]1O[C@@H](Oc2cc(O)c3c(=O)c(-c4ccc(O)cc4)coc3c2)[C@H](O)[C@@H](O)[C@@H]1O [acetylgenistin, 6″-O-acetylgenistin]

>  <Value Measured>
44.6

$$$$
>  <Molecule>
COc1cc2c(=O)c(-c3ccc(O)cc3)coc2cc1O[C@@H]1O[C@H](COC(C)=O)[C@@H](O)[C@H](O)[C@H]1O [acetylglycitin, 6″-O-acetylglycitin]

>  <Value Measured>
33.6

$$$$

Moving on to the next molecule.
Ask | Entry COc1cc2c(=O)c(-c3ccc(O)cc3)coc2cc1O [glycitein] : reported Decomposition efficiency: ratio of each glycoside/aglycon within its isoflavone family = ?
Reply | 66.2

----------
# Test system: Crude diglycosidase
# Assay Method Text: Examination of pH in the conversion into isoflavone aglycons by diglycosidase using soybean materials
# Format: biochemical, Penicillium multicolor IAM7153
# Condition Details: pH6.2; heat treatment of enzyme: no; reaction time 6 h
Measurement Name: Decomposition efficiency of daidzin family in soymilk (%)
Write the number in % without appending the unit.

>  <Smiles Entry>
O=C(O)CC(=O)OC[C@H]1O[C@@H](Oc2ccc3c(=O)c(-c4ccc(O)cc4)coc3c2)[C@H](O)[C@@H](O)[C@@H]1O

>  <Target>
Crude diglycosidase

>  <Value Measured>
41.9

$$$$

Ask | Give its Decomposition efficiency of daidzin family in soymilk value. Item: O=c1c(-c2ccc(O)cc2)coc2cc(O)ccc12
Reply | 58.1

----------
# Test system: Crude diglycosidase
# Assay Method Text: Examination of pH in the conversion into isoflavone aglycons by diglycosidase using soybean materials
# Type: biochemical, Penicillium multicolor IAM7153
# Condition Details: pH6.6; heat treatment of enzyme: yes; reaction time 6 h
# Procedure: A substrate solution of 450 μL was prepared by suspending 50 mg of each soybean material (roasted soy flour (manufactured by Fuji Shokuryo K.K.), soymilk (manufactured by Gitoh Shokuhin K.K.), defatted soybean (manufactured by Fuji Seiyu K.K.), concentrated soybean protein (manufactured by Fuji Seiyu K.K.)), and adjusting the pH to 2 to 11 with hydrochloric acid or sodium hydroxide. […]
We begin with a simple list: items and their reported Decomposition efficiency of daidzin family in concentrated soybean protein.
Give the quantity in %, number only.

Ask | Would you mind telling me what Decomposition efficiency of daidzin family in concentrated soybean protein value was observed for O=c1c(-c2ccc(O)cc2)coc2cc(O)ccc12 [daidzein] ?
Reply | 3.2

Ask | Follow-up entry: CC(=O)OC[C@H]1O[C@@H](Oc2ccc3c(=O)c(-c4ccc(O)cc4)coc3c2)[C@H](O)[C@@H](O)[C@@H]1O [acetyldaidzin, 6″-O-acetyldaidzin]
Reply | 41.8

Ask | Do the same for O=c1c(-c2ccc(O)cc2)coc2cc(O[C@@H]3O[C@H](CO)[C@@H](O)[C@H](O)[C@H]3O)ccc12 [daidzin] please
Reply | 55.1

----------
This section presents compounds with their documented Decomposition efficiency of daidzin family in defatted soybean values.
# System: Crude diglycosidase
# Assay Method Text: Examination of pH in the conversion into isoflavone aglycons by diglycosidase using soybean materials
# Format: biochemical, Penicillium multicolor IAM7153
# Design: concentration or dose not given beside the values
# Condition Details: pH3.4; heat treatment of enzyme: no; reaction time 6 h
Report the figure in % without appending any unit label.

>  <Compound>
O=C(O)CC(=O)OC[C@H]1O[C@@H](Oc2ccc3c(=O)c(-c4ccc(O)cc4)coc3c2)[C@H](O)[C@@H](O)[C@@H]1O [malonyldaidzin, 6″-O-malonyldaidzin]

>  <Value Measured>
29.0

$$$$

Here is the next item to consider.
Ask | Give its Decomposition efficiency of daidzin family in defatted soybean value. Item: O=c1c(-c2ccc(O)cc2)coc2cc(O)ccc12 [daidzein]
Reply | 71.0

----------
# System: Crude diglycosidase
# Assay Method Text: Examination of substrate concentration in the conversion into isoflavone aglycons by diglycosidase using soybean materials;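 further: percent of the isoflavone family total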
# Format: biochemical, Penicillium multicolor IAM7153
# Condition Details: concentrated soybean protein, substrate concentration 5%, heat treatment of enzyme no, reaction time 0 h
Classify: True when Decomposition efficiency: ratio of each glycoside/aglycon within its isoflavone family is strictly less than 50%; False when Decomposition efficiency: ratio of each glycoside/aglycon within its isoflavone family is not.

>  <Smiles Entry>
O=c1c(-c2ccc(O)cc2)coc2cc(O[C@@H]3O[C@H](CO)[C@@H](O)[C@H](O)[C@H]3O)ccc12

>  <Answer Label>
False

$$$$
>  <Smiles Entry>
COc1cc2c(=O)c(-c3ccc(O)cc3)coc2cc1O[C@@H]1O[C@H](COC(C)=O)[C@@H](O)[C@H](O)[C@H]1O

>  <Answer Label>
True

$$$$

Ask | # strict comparison: is reported Decomposition efficiency: ratio of each glycoside/aglycon within its isoflavone family < 50%? input = CC(=O)OC[C@H]1O[C@@H](Oc2cc(O)c3c(=O)c(-c4ccc(O)cc4)coc3c2)[C@H](O)[C@@H](O)[C@@H]1O
Reply | True

Ask | Would you mind doing COc1cc2c(=O)c(-c3ccc(O)cc3)coc2cc1O[C@@H]1O[C@H](COC(=O)CC(=O)O)[C@@H](O)[C@H](O)[C@H]1O as well?
Reply | True

Ask | Now consider COc1cc2c(=O)c(-c3ccc(O)cc3)coc2cc1O[C@@H]1O[C@H](CO)[C@@H](O)[C@H](O)[C@H]1O and answer again.
Reply | False

Ask | Check CC(=O)OC[C@H]1O[C@@H](Oc2ccc3c(=O)c(-c4ccc(O)cc4)coc3c2)[C@H](O)[C@@H](O)[C@@H]1O too.
Reply | True

----------
Examples of molecules with documented Decomposition efficiency of daidzin family in defatted soybean follow.
# System: Crude diglycosidase
# Assay Method Text: Examination of temperature in the conversion into isoflavone aglycons by diglycosidase using soybean materials
# Assay type: biochemical, Penicillium multicolor IAM7153
# Parameters: concentration or dose not given beside the values
# Condition Details: 65° C., heat treatment of enzyme no, reaction time 6 h
Give the value, in units of %, as a plain number.

>  <Molecule>
O=c1c(-c2ccc(O)cc2)coc2cc(O)ccc12 [daidzein]

>  <Value Measured>
62.7

$$$$

Alright, here's another molecule for you.
Ask | # Decomposition efficiency of daidzin family in defatted soybean lookup, item O=C(O)CC(=O)OC[C@H]1O[C@@H](Oc2ccc3c(=O)c(-c4ccc(O)cc4)coc3c2)[C@H](O)[C@@H](O)[C@@H]1O [malonyldaidzin, 6″-O-malonyldaidzin]
Reply | 37.3

----------
# Test system: Crude diglycosidase
# Assay Method Text: Examination of pH in the conversion into isoflavone aglycons by diglycosidase using soybean materials
# Type: biochemical, Penicillium multicolor IAM7153
# Condition Details: pH11.6; heat treatment of enzyme: no; reaction time 1 h
Measurement Name: Decomposition efficiency of daidzin family in soymilk

>  <Smiles Entry>
O=c1c(-c2ccc(O)cc2)coc2cc(O)ccc12

>  <Value Measured>
43.6%

$$$$
>  <Smiles Entry>
CC(=O)OC[C@H]1O[C@@H](Oc2ccc3c(=O)c(-c4ccc(O)cc4)coc3c2)[C@H](O)[C@@H](O)[C@@H]1O

>  <Value Measured>
not detected

$$$$
>  <Smiles Entry>
O=c1c(-c2ccc(O)cc2)coc2cc(O[C@@H]3O[C@H](CO)[C@@H](O)[C@H](O)[C@H]3O)ccc12

>  <Value Measured>
not detected

$$$$
>  <Smiles Entry>
O=C(O)CC(=O)OC[C@H]1O[C@@H](Oc2ccc3c(=O)c(-c4ccc(O)cc4)coc3c2)[C@H](O)[C@@H](O)[C@@H]1O

>  <Value Measured>
56.4%

$$$$
